Test system: sensitized guinea pig trachea
ASSAY TEXT: Antigen challenge 'in vitro' assay (egg albumin-induced contraction of sensitized tracheal chains)
Assay type: cell-based
CONDITION DETAILS: Cavia porcellus; at 10 μg/ml; read-out: In Vitro Antigen Challenge % Inhibition
Procedure: Male guinea pigs weighing 300-350 g were sensitized by injecting (i.p.) 0.5 ml of a suspension containing 0.4 mg of egg albumin (Ovalbumin, Grade V, Sigma Chemical Co.) and 4.0 g aluminum hydroxide in 19.6 ml of saline. Two weeks were permitted for sensitization to occur. Three sensitized guinea pigs were stunned and exsanguinated. […] The response of the challenged tissue was expressed as a percentage of the methacholine maximum. The % inhibition for each compound was then calculated. […]
Parameter inhibition at 10 µg/mL: see the listing below.
I'd appreciate it if you included the unit after the number.

A selection of reference data follows.
>  <COMPOUND>
Clc1cccc2c1Sc1ccccc1N2 [Compound 3]

>  <SYSTEM TESTED>
sensitized guinea pig trachea

>  <inhibition at 10 µg/mL>
37%

$$$$
>  <COMPOUND>
CC(=O)Oc1ccc2c(c1)Sc1ccccc1N2 [Compound 7]

>  <SYSTEM TESTED>
sensitized guinea pig trachea

>  <inhibition at 10 µg/mL>
60%

$$$$
>  <COMPOUND>
O=[N+]([O-])c1ccc2c(c1)Sc1cc([N+](=O)[O-])ccc1N2 [Compound 15]

>  <SYSTEM TESTED>
sensitized guinea pig trachea

>  <inhibition at 10 µg/mL>
21%

$$$$
>  <COMPOUND>
COc1ccc2c(c1)Sc1cc(Cl)ccc1N2 [Compound 13]

>  <SYSTEM TESTED>
sensitized guinea pig trachea

>  <inhibition at 10 µg/mL>
22%

$$$$

Req: Bench note: what inhibition at 10 µg/mL did CC(=O)Oc1ccc2c(c1Cl)Sc1ccccc1N2 [Compound 11] show?
Resp: 100%

====

Tested on: Mouse peritoneal macrophages
ASSAY TEXT: Mouse macrophage assay (zymosan-stimulated arachidonic acid metabolites, Leukotriene C4)
Format: cell-based
CONDITION DETAILS: mouse peritoneal macrophages, zymosan, read-out: Macrophage IC50
QUANTITY KIND: log10(IC50) (log10 of the value in µg/mL)
Response schema: value (number) is log10 of IC50 in units of µg/mL.

>  <STRUCTURE AS SMILES>
COc1ccc2c(c1Cl)Sc1ccccc1N2C(C)=O

>  <SYSTEM TESTED>
Mouse peritoneal macrophages

>  <log10(IC50)>
0.00

$$$$

Req: Bench note: what log10(IC50) did CC(=O)c1ccc2c(c1)Nc1ccccc1S2 show?
Resp: -0.70

Req: Bench note: what log10(IC50) did COc1ccc2c(c1)Sc1cc(Cl)ccc1N2 show?
Resp: -0.92

Req: Bench note: what log10(IC50) did Cc1cccc2c1Nc1ccccc1S2 show?
Resp: 0.70

====

Test system: Mouse peritoneal macrophages
ASSAY TEXT: Mouse macrophage assay (zymosan-stimulated arachidonic acid metabolites, Leukotriene C4)
Format: cell-based
CONDITION DETAILS: mouse peritoneal macrophages, zymosan, read-out: Macrophage IC50
QUANTITY KIND: IC50 (mg/L)
Dear colleague, please return just the value in mg/L, with no unit written.

Req: Bench note: what IC50 did CN(C)c1ccc2c(c1)Sc1cc(N(C)C)ccc1N2 show?
Resp: 5

====

Test system: Mouse peritoneal macrophages
ASSAY TEXT: Mouse macrophage assay (zymosan-stimulated arachidonic acid metabolites, Leukotriene C4)
Format: cell-based
CONDITION DETAILS: mouse peritoneal macrophages, zymosan, read-out: Macrophage IC50
QUANTITY KIND: IC50 (µg/mL)
Dear colleague, please return just the value in µg/mL, with no unit written.

A selection of reference data follows.
>  <STRUCTURE AS SMILES>
COc1ccc2c(c1Cl)Sc1ccccc1N2C

>  <QUANTITY KIND>
IC50

>  <EXPERIMENTAL VALUE>
1

$$$$
>  <STRUCTURE AS SMILES>
FC(F)(F)c1ccc2c(c1)Nc1ccccc1S2

>  <QUANTITY KIND>
IC50

>  <EXPERIMENTAL VALUE>
0.1

$$$$
>  <STRUCTURE AS SMILES>
CC(=O)Oc1ccc2c(c1Cl)Sc1ccccc1N2

>  <QUANTITY KIND>
IC50

>  <EXPERIMENTAL VALUE>
0.1

$$$$

Now consider a different molecule.
Req: Which measured IC50 belongs to CC(=O)N1c2ccccc2Sc2ccccc21 , tested on Mouse peritoneal macrophages?
Resp: 5

Every entry's value here was drawn from patent US4666907A.
